Where do the numbers come from? From the supplement of paper PMC12042874.

# protocol.description: amyloid nucleation score (Sup35N fusion, yeast selection) (log enrichment); library NNK1; higher = more nucleation; inactive = no reads after selection;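 further: zero at mode of non-aggregating sequences after 7 days selection at 30°C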
Could you please report measured amyloid nucleation score for the items listed next?
Answers are plain numbers.

substance | amyloid nucleation score
NLFTDVIHYMVAFLLVYYII | 0.682

Turning now to a further record.
Dear colleague, I am looking for the recorded amyloid nucleation score of the following substance: VRQSGLCIKWEVTRRAKRSV
0.699

---

# protocol.description: amyloid nucleation score (Sup35N fusion, yeast selection) (log enrichment); library NNK2; higher = more nucleation; inactive = no reads after selection
Could you please report measured amyloid nucleation score for the items listed next?

seq.string | observed.result
ETHFVTKDLASSLGKLAHPY | 8.85

Answer for every listed entry: what is its amyloid nucleation score? The entries follow.
1. YQRRRSGGLELDWSNTMQGC
2. DYMFIDLASSNTNLRSWSHS
3. CDQYHSQPWMLKTQIRLMTA

1: -0.015; 2: -0.408; 3: 1.27

Answer for every listed entry: what is its amyloid nucleation score? The entries follow.
1. LPCGVSLALHSWENYILNRP
2. LSYPTVYLATLVYFLQMWAV
3. QSRWSFKTYYSREKW

1. 0.55
2. -0.285
3. -0.278
